// reported binding signal for each item listed
Molecular target: AGO2 T357M (Homo sapiens, UniProt Q9UKV8 1-859, T357M;S387D;S824A;S828D;S831D;S834A)
Sequence (Q9UKV8 whole entry T357M/S387D/S824A/S828D/S831D/S834A): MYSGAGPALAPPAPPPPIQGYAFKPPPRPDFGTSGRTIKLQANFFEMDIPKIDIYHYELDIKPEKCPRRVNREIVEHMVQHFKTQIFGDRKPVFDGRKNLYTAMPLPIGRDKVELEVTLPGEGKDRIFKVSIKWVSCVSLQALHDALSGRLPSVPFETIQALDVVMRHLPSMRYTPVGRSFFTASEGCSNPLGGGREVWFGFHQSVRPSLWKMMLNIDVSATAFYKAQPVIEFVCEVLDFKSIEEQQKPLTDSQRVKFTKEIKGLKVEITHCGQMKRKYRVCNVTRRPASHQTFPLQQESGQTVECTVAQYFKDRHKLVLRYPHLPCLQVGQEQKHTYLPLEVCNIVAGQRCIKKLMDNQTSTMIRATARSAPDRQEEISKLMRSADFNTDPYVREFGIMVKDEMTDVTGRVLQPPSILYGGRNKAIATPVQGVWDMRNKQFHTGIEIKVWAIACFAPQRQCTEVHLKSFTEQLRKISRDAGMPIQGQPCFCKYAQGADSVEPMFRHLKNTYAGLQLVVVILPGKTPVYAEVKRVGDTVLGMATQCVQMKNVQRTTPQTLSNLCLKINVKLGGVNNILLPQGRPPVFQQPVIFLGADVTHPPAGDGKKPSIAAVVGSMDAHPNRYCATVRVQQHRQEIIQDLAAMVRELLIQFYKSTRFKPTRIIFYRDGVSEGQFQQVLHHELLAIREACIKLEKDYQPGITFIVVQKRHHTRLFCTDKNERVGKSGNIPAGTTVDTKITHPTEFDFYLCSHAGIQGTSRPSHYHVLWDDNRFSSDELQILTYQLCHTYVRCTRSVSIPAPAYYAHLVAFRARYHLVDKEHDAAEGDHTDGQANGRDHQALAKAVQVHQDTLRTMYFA
Assay: RNA Bind-n-Seq (nitrocellulose filter binding and sequencing); miR-122 guide loaded in AGO2; 60 min incubation; 30 mM Tris pH 8.0, 100 mM potassium acetate, 2 mM magnesium acetate, 0.5 mM TCEP, 0.005% NP-40, 0.01 mg/ml yeast tRNA; 3 nM AGO2-miR-122, 100 nM RNA library; 60; high values mean tight binding
Conditions: protein: recombinant; tags: His6 (N-terminal, pFastBac HTA)

binder="GCACTTCG (ssRNA, constant regions annealed to DNA blockers; guide miR-122 5' phosphate) RNA 1: GAGUUCUACAGUCCGACGAUCCCAACGCACUUCGCACCUGGAAUUCUCGGGUGCCAA RNA 2: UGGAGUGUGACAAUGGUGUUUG DNA 1: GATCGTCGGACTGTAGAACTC DNA 2: TTGGCACCCGAGAATTCCA" result="0.471 fold enrichment over input"

Next, consider the following binder.
Prompt: Annotate the binder ATGTCTCG (ssRNA, constant regions annealed to DNA blockers; guide miR-122 5' phosphate) RNA 1: GAGUUCUACAGUCCGACGAUCCCAACAUGUCUCGCACCUGGAAUUCUCGGGUGCCAA RNA 2: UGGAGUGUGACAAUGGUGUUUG DNA 1: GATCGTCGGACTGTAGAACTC DNA 2: TTGGCACCCGAGAATTCCA with its measured binding signal.
Response: 0.415 fold enrichment over input
